procedureText: Caspase-3/7 induction in HepG2 cells by small molecules, qHTS assay (AID 1346978); also: nearly all actives have a fitted effect of over 15% in size
measurementSetup: HepG2 caspase-3/7 activation, Caspase-Glo luminescence, 17 h; series mostly up to 92.4 µM
Results filed as inconclusive are left out. Active and inactive are the calls of the source. Calls follow the shape of the dose curve; as a rule, active = well fitted activation curve with a large enough effect in the repeat runs; inconclusive = weak or mixed curves; inactive = flat fitted curve, though single readings scatter.
Tick one outcome: active, inactive

# example entries with known answers
* O=c1[nH]sc2cc(Cl)ccc12 | inactive
* CCN(CC)CCNC(=O)c1c(C)[nH]c(/C=C2\C(=O)Nc3ccc(F)cc32)c1C | active
* CC(C)(C)NC(=O)[C@@H]1C[C@@H]2CCCC[C@@H]2CN1C[C@@H](O)[C@H](Cc1ccccc1)NC(=O)[C@H](CC(N)=O)NC(=O)c1ccc2ccccc2n1 | active
* NNc1nc(-c2ccc(N)cc2)cs1 | inactive
* CSc1ccc(/C=C2/C(C)=C(CC(=O)O)c3cc(F)ccc32)cc1 | inactive

// query What was the test verdict on `CCc1oc2ccccc2c1C(=O)c1cc(Br)c(O)c(Br)c1` ?
// result inactive

---

procedureText: qHTS assay to identify small molecule antagonists of the farnesoid-X-receptor (FXR) signaling pathway - cell viability counter screen (AID 743221); also: nearly all actives have a fitted effect of over 50% in size
measurementSetup: FXR-bla HEK293T viability, CellTiter-Glo luminescence, 16 h; series mostly up to 62.6 µM
Results filed as inconclusive are left out. Calls of active or inactive are those of the source. Calls follow the shape of the dose curve; as a rule, active = well fitted cell-killing curve with a large enough effect in the repeat runs (not every such curve was filed as active); inconclusive = weak or mixed curves, or effect the other way; inactive = no such curve, though single readings can be large or run the other way.
Tick one outcome: 1 for active, -1 for inactive

# example entries with known answers
• CC(=O)OCC(C)OC(C)=O (stereo not drawn) = -1
• CCCCCCCCCCCC(=O)NCCCN(C)C = 1

// query What was the test verdict on CCCCCCCCCCCCCC[P+](CCCC)(CCCC)CCCC (tested in a mixture with another compound) ?
// result 1

// query What was the test verdict on `O=C(Oc1cccc2cccnc12)c1ccccc1` ?
// result 1

---

procedureText: A CellTox Green Cytotoxicity Assay to monitor cytotoxicity in HEK293 cells - 40 hour (AID 1224871); also: nearly all actives have a fitted effect of over 45% in size; also: potency is read from the fitted curve at half-maximal effect
measurementSetup: CellTox Green fluorescence; series mostly up to 76.8 µM
Inconclusive results are not listed. Activity calls are given as the source filed them. Calls come from the whole dose curve; as a rule, active = well fitted activation curve with a large enough effect in the repeat runs; inconclusive = weak or mixed curves; inactive = flat fitted curve, though single readings scatter.
measure: Potency

Below, each entry is followed by its recorded Potency result.
- Nc1nc2ccccc2n1Cc1ccc(F)cc1: inactive
- CCC(CN)=C(c1ccccc1)c1ccccc1: inactive
- CCCN(CCC)C(=O)C(CCC(=O)OCCCN1CCN(CCOC(=O)Cc2c(C)n(C(=O)c3ccc(Cl)cc3)c3ccc(OC)cc23)CC1)NC(=O)c1ccccc1 (stereo not given): inactive
- CC(=O)OCC(C)OC(C)=O (stereo not given): inactive
- CC(C)C(C)(C)C(C)(C)C(C)(C)S: inactive

// query Any idea what its Potency is? The compound is `ON=C1CCCC1`
// result inactive

// query Any idea what its Potency is? The compound is CC1=NC(C)OC1C (stereo not given)
// result inactive

// query Any idea what its Potency is? The compound is `Cc1ccc(-n2nc(C(C)(C)C)cc2NC(=O)Nc2ccc(OCCN3CCOCC3)c3ccccc23)cc1`
// result inactive

// query Any idea what its Potency is? The compound is `C[C@H](CCC(=O)O)[C@H]1CC[C@H]2[C@@H]3CC[C@@H]4C[C@H](O)CC[C@]4(C)[C@H]3CC[C@]12C`
// result inactive

// query Any idea what its Potency is? The compound is `C=C(C)C(=O)OCC[N+](C)(C)C`
// result inactive

// query Any idea what its Potency is? The compound is `CCCCCCCCCCn1cc[n+](CCCCCCCCCC)c1C`
// result 19.5 µM (active)

// query Any idea what its Potency is? The compound is `CCOC(=O)O[C@H](C)OC(=O)c1ccc2c(c1)cc(C(=O)NC1CCN(C(C)C)CC1)n2Cc1cc(-c2ccc(Cl)s2)on1`
// result 18.2 µM (active)

// query Any idea what its Potency is? The compound is CCCCC(CC)COP(=O)(O)OCC(CC)CCCC (stereo not given)
// result 43.6 µM (active)

// query Any idea what its Potency is? The compound is COC(=O)C1=C(C)NC(C)=C(C(=O)OCCc2ccc(N3CCN(C(c4ccccc4)c4ccccc4)CC3)cc2)C1c1cccc([N+](=O)[O-])c1 (stereo not given)
// result inactive

// query Any idea what its Potency is? The compound is `Nc1ccc2cc(S(=O)(=O)O)cc(O)c2c1N=Nc1ccccc1C(F)(F)F`
// result inactive

// query Any idea what its Potency is? The compound is `OC1(c2ccc(Cl)c(C(F)(F)F)c2)CCN(CCCC(c2ccc(F)cc2)c2ccc(F)cc2)CC1`
// result 21.3 µM (active)

// query Any idea what its Potency is? The compound is `N#CC1(c2ccc(F)cc2)CCC(=O)CC1`
// result inactive

// query Any idea what its Potency is? The compound is `C/C(=C(/OCCOc1ccc(Cl)cc1)c1ccc(Cl)cc1Cl)n1ccnc1`
// result inactive

// query Any idea what its Potency is? The compound is `CCCCc1oc2ccc(NS(C)(=O)=O)cc2c1C(=O)c1ccc(OCCCN(CCCC)CCCC)cc1`
// result 19 µM (active)

// query Any idea what its Potency is? The compound is `CCOC(=O)c1nc(C(Cl)(Cl)Cl)n(-c2ccc(Cl)cc2Cl)n1`
// result inactive

// query Any idea what its Potency is? The compound is `Cc1cc(CCN2CCN(c3nsc4ccccc34)CC2)cc2c1NC(=O)CC2(C)C`
// result 49 µM (active)

// query Any idea what its Potency is? The compound is `CCc1cc(Cc2cc(CC)c(N)c(CC)c2)cc(CC)c1N`
// result inactive

// query Any idea what its Potency is? The compound is `CCCCCOc1ccccc1/C(=C\SC)n1ccnc1`
// result inactive

---

procedureText: qHTS assay for identifying genotoxic compounds that show differential cytotoxicity against isogenic chicken DT40 cell lines with known DNA damage response pathways - Rev3 mutant cell line (AID 743014); also: nearly all actives have a fitted effect of over 55% in size
measurementSetup: chicken DT40 Rev3-/- viability, CellTiter-Glo, 40 h; series mostly up to 68.4 µM
Results filed as inconclusive are left out. Active and inactive are the calls of the source. Calls follow the shape of the dose curve; as a rule, active = well fitted cell-killing curve with a large enough effect in the repeat runs; inconclusive = weak or mixed curves, or effect the other way; inactive = no such curve, though single readings can be large or run the other way.
Tick one outcome: 1 for active, 0 for inactive

* CSc1ccc(C(=O)c2[nH]c(=O)[nH]c2C)cc1 | 0
* COc1cccc2c1C(=O)c1c(O)c3c(c(O)c1C2=O)C[C@@](O)(C(=O)CO)C[C@@H]3O[C@H]1C[C@H](N)[C@H](O[C@@H]2CCCCO2)[C@H](C)O1 | 1
* OCc1c[nH]c2ccccc12 | 1
* O=c1[nH]sc2ccccc12 | 1
* O=c1[nH]cnc2nc[nH]c12 | 0
* CCCCCCCCS(=O)C(C)Cc1ccc2c(c1)OCO2 (stereo unspecified) | 1

// query What was the test verdict on `Cn1cc(C(=O)[C@@H]2CCc3nc[nH]c3C2)c2ccccc21` ?
// result 0

---

procedureText: qHTS assay to identify small molecule agonists of the endoplasmic reticulum stress response signaling pathway - cell viability counter screen (AID 1159517); also: nearly all actives have a fitted effect of over 50% in size
measurementSetup: ESRE-bla HeLa viability, CellTiter-Glo luminescence, 5 h; series mostly up to 61 µM
Records with an inconclusive call do not appear. Calls of active or inactive are those of the source. Calls come from the whole dose curve.
Tick one outcome: t for active, f for inactive

• [Cl][Bi]([Cl])([c]1ccccc1)([c]1ccccc1)[c]1ccccc1 = t

// query What was the test verdict on CCC1OCC(COc2ccc(Oc3ccccc3)cc2)O1 (stereo not given) ?
// result f

// query What was the test verdict on `Clc1ccc2cc3ccccc3cc2c1` ?
// result f

// query What was the test verdict on `CCN(C(=O)c1cc(C)cc(OC[C@H](C)Nc2ccncc2)c1)C(C)C` ?
// result f

// query What was the test verdict on `CCCCCCCCCCCC(=O)NCCCN(C)C` ?
// result t

// query What was the test verdict on `N=C1N=C(N)c2ccccc21` ?
// result t

---

procedureText: A CellTox Green Cytotoxicity Assay to monitor cytotoxicity in HEK293 cells - 24 hour (AID 1224875); also: nearly all actives have a fitted effect of over 45% in size
measurementSetup: CellTox Green fluorescence; series mostly up to 76.8 µM
Inconclusive results are not listed. The source made the active and inactive calls. Calls come from the whole dose curve; as a rule, active = well fitted activation curve with a large enough effect in the repeat runs; inconclusive = weak or mixed curves; inactive = flat fitted curve, though single readings scatter.
Tick one outcome: true for active, false for inactive

- CC(=O)N1CCN(c2ccc(OC[C@H]3CO[C@](Cn4ccnc4)(c4ccc(Cl)cc4Cl)O3)cc2)CC1: true

// query What was the test verdict on CCC(C)(C)C1CCCCC1OC(C)=O (stereo not given) ?
// result false

// query What was the test verdict on `CSc1ccc(/C=C2/C(C)=C(CC(=O)O)c3cc(F)ccc32)cc1` ?
// result false

// query What was the test verdict on `CCCCN1CCCC[C@H]1C(=O)Nc1c(C)cccc1C` ?
// result false

// query What was the test verdict on `O=C(NOCC1CC1)c1ccc(F)c(F)c1Nc1ccc(I)cc1Cl` ?
// result false

// query What was the test verdict on `COc1c(C)c2c(c(O)c1C/C=C(\C)CCC(=O)O)C(=O)OC2` ?
// result false

// query What was the test verdict on `CCCC(c1cc(C(C)(C)C)c(O)cc1C)c1cc(C(C)(C)C)c(O)cc1C` ?
// result true

Numbers sourced from PubChem BioAssay (Tox21).
